Target: Apelin receptor (Homo sapiens) (UniProt P35414)
Assay: potency against CXCR6 with APJ panel – cell-based, beta-arrestin, DiscoveRx, uHTS hits, dose response (AID 624129)
Conditions: CXCR6 beta-arrestin (DiscoveRx) antagonist cell assay, APJ, run 2, dose range 1
Give log10 IC50 for every item shown.
// do not treat as linear: log10 of IC50, unit µM

Completed entries (count: 8):
>>> assayvalue("O=C(Nc1nc2c(F)cc(F)cc2s1)c1ccccn1")
0.38
>>> assayvalue("O=C1C=CC2(O[C@H](c3ccccc3)[C@@H](c3ccccc3)O2)[C@H](Sc2ccccc2O)C1")
0.70
>>> assayvalue("CC(=O)OCCNc1cc(SCc2ccco2)c2nonc2c1[N+](=O)[O-]")
1.25
>>> assayvalue("Cc1ccc(C(=O)Sc2cccccc2=O)cc1")
0.66
>>> assayvalue("O=C1c2ccccc2C(=O)N1OS(=O)(=O)c1ccc(F)cc1")
1.43
>>> assayvalue("Cn1nc([N+](=O)[O-])nc1Sc1cccc2cccnc12")
1.06
>>> assayvalue("O=C1C=CC(=O)N1c1ccc(-c2nc3ccccc3o2)cc1")
0.71
>>> assayvalue("CCOc1ccccc1NC(=O)c1nc(S(=O)(=O)Cc2ccccc2)ncc1Cl")
1.13

Below is a list of compounds. For each, state its recorded log10 IC50.
1. CCC(=O)OCCNc1cc(Sc2nccn2C)c2nonc2c1[N+](=O)[O-]
2. COc1cc(/C=C/c2ccc3cccc(O)c3n2)cc(OC)c1OC
3. Cc1ccc2c(C)ccc(O)c2n1
4. COc1cc2c(cc1OC)C1(CCCC1)CNC2c1cccc([N+](=O)[O-])c1 (stereo unspecified)
5. COc1ccc(CCN2C(=O)C=CC2=O)cc1OC
6. COc1ccc(OC)c(NC(=O)c2nc(S(=O)(=O)Cc3ccccc3)ncc2Cl)c1

0.67
0.66
0.79
1.32
0.95
1.06

Attribution: PubChem BioAssay AID624129
